Origin of values: the supplement of paper PMC12669032

System: Bacteroides stercoris
procedure summary: growth AUC relative to DMSO control (median of replicates) (fraction); higher = more growth (less inhibition), active = hit call of the paper
assay setup: 20 µM; 24 h
Please use Y whenever growth AUC is not below 1, and N whenever it is.

Worked examples follow.
[
  {
    "compound": "O=C(O)c1ccc(Cl)nc1",
    "target desc": "Bacteroides stercoris",
    "class label": "Y"
  },
  {
    "compound": "CCOP(=O)(NC(C)C)Oc1ccc(S(C)(=O)=O)c(C)c1 (configuration not stated)",
    "target desc": "Bacteroides stercoris",
    "class label": "Y"
  },
  {
    "compound": "CCOP(=O)(OCC)ON1C(=O)c2cccc3cccc(c23)C1=O",
    "target desc": "Bacteroides stercoris",
    "class label": "N"
  },
  {
    "compound": "O=C(Nc1ccccc1)Nc1ccnc(Cl)c1",
    "target desc": "Bacteroides stercoris",
    "class label": "N"
  },
  {
    "compound": "NCP(=O)(O)O",
    "target desc": "Bacteroides stercoris",
    "class label": "Y"
  },
  {
    "compound": "CC(C)(COCc1cccc(Oc2ccccc2)c1)c1ccc(OC(F)(F)Br)cc1",
    "target desc": "Bacteroides stercoris",
    "class label": "Y"
  }
]

Consider the additional compound presented here.
Is it the case that CC(Oc1ccc(Oc2ccc(C(F)(F)F)cn2)cc1)C(=O)O (configuration not stated) has growth AUC reaching or exceeding 1?
Y

###

Test system: Escherichia coli ED1a
procedure summary: growth AUC relative to DMSO control (median of replicates) (fraction); higher = more growth (less inhibition), active = hit call of the paper
assay setup: 20 µM; 24 h
measured quantity: growth AUC
Lab note: jot down the number only; don't add units.

Past entries and their recorded results:
[
  {
    "molecule": "CNC(=O)N(C)c1nnc(C(C)(C)C)s1",
    "growth AUC": 0.99
  },
  {
    "molecule": "Oc1cccc2cccnc12",
    "growth AUC": 0.987
  },
  {
    "molecule": "CCCCOCN(C(=O)CCl)c1c(CC)cccc1CC",
    "growth AUC": 1.02
  },
  {
    "molecule": "CCCCCCCCCc1ccc(O)cc1",
    "growth AUC": 0.998
  },
  {
    "molecule": "CC(C)[C@@H](Nc1ccc(C(F)(F)F)cc1Cl)C(=O)OC(C#N)c1cccc(Oc2ccccc2)c1 (stereo partly drawn)",
    "growth AUC": 1
  },
  {
    "molecule": "CCOP(=S)(OCC)SCn1c(=O)oc2cc(Cl)ccc21",
    "growth AUC": 0.981
  }
]

Turning now to a further molecule:
For the molecule CS/C(C)=N/OC(=O)N(C)SN(C)C(=O)O/N=C(\C)SC , report growth AUC.
1.02

###

Test system: Fusobacterium nucleatum subsp. animalis
procedure summary: growth AUC relative to DMSO control (median of replicates) (fraction); higher = more growth (less inhibition), active = hit call of the paper
assay setup: 20 µM; 24 h
measured quantity: growth AUC

Past entries and their recorded results:
[
  {
    "mol": "CCNS(=O)(=O)C(F)(F)C(F)(F)C(F)(F)C(F)(F)C(F)(F)C(F)(F)C(F)(F)C(F)(F)F",
    "result value": "0.968 (inactive)"
  },
  {
    "mol": "O=P(OC(CCl)CCl)(OC(CCl)CCl)OC(CCl)CCl",
    "result value": "1.11 (inactive)"
  },
  {
    "mol": "COC(=O)C(C)(Cl)Cl",
    "result value": "1.03 (inactive)"
  },
  {
    "mol": "COC(=O)NS(=O)(=O)c1ccc(N)cc1",
    "result value": "0.939 (inactive)"
  }
]

Turning now to a further molecule:
For the molecule Cc1c(COC(=O)[C@@H]2[C@H](/C=C(\Cl)C(F)(F)F)C2(C)C)cccc1-c1ccccc1 , report growth AUC.
1.07 (inactive)
